Data origin: ChEMBL document CHEMBL1150775

Molecular target: Estrogen receptor (Homo sapiens)
Experiment: Activation of human estrogen receptor alpha expressed in HEK293 cells at 10 uM by beta-galactosidase reporter gene assay relative to 3,17 beta-estradiol
Assay type: cell-based
Below, each of the compounds is paired with its reported Activity value.
QUANTITY_KIND: Activity

COMPOUND: CS(C)=C(C(=O)CCc1ccccc1)C(=O)c1ccccc1
QUANTITY_KIND: Activity
REPORTED_MEASUREMENT: -2.5%

COMPOUND: c1ccc(CCCC2=NOC(Cc3ccccc3)C2)cc1 (stereo not given)
QUANTITY_KIND: Activity
REPORTED_MEASUREMENT: 31.3%

COMPOUND: c1ccc(CCC2=NOC(Cc3cccc4ccccc34)C2)cc1 (single isomer, unassigned; 52a)
QUANTITY_KIND: Activity
REPORTED_MEASUREMENT: 34.1%

COMPOUND: c1ccc(CCC2CC(c3ccccc3)=NO2)cc1 (single isomer, unassigned; 10a)
QUANTITY_KIND: Activity
REPORTED_MEASUREMENT: 22.8%

COMPOUND: COc1ccccc1CC(CC(=O)Cc1ccc2ccccc2c1)OC (single isomer, unassigned)
QUANTITY_KIND: Activity
REPORTED_MEASUREMENT: 0.3%

COMPOUND: COc1ccc(CC2CC(CCc3ccccc3)=NO2)cc1 (single isomer, unassigned; 50a)
QUANTITY_KIND: Activity
REPORTED_MEASUREMENT: 0.8%

COMPOUND: COc1ccccc1CC(=O)CC(Cc1ccc2ccccc2c1)OC (single isomer, unassigned; 66a)
QUANTITY_KIND: Activity
REPORTED_MEASUREMENT: 3.5%

COMPOUND: O=C(CCc1ccccc1)CC(O)c1ccccc1 (single isomer, unassigned; 23b)
QUANTITY_KIND: Activity
REPORTED_MEASUREMENT: 25.3%

COMPOUND: O=C(CC(O)CCc1ccccc1)c1ccccc1 (stereo not given)
QUANTITY_KIND: Activity
REPORTED_MEASUREMENT: 13%

COMPOUND: O=C(CCCc1ccccc1)CC(O)Cc1ccccc1 (stereo not given)
QUANTITY_KIND: Activity
REPORTED_MEASUREMENT: 24.7%

COMPOUND: Oc1ccccc1CCC1=NOC(Cc2ccccc2)C1 (single isomer, unassigned)
QUANTITY_KIND: Activity
REPORTED_MEASUREMENT: 39.7%

COMPOUND: O=C(CCCc1ccccc1)CC(=O)CCc1ccccc1
QUANTITY_KIND: Activity
REPORTED_MEASUREMENT: 6.1%

COMPOUND: c1ccc(CCC2=NOC(c3ccccc3)C2)cc1 (single isomer, unassigned; 12a)
QUANTITY_KIND: Activity
REPORTED_MEASUREMENT: 16.4%

COMPOUND: c1ccc(CCCC2=NOC(CCc3ccccc3)C2)cc1 (stereo not given)
QUANTITY_KIND: Activity
REPORTED_MEASUREMENT: 67.6%

COMPOUND: Oc1ccc(CC2CC(CCc3ccccc3O)=NO2)cc1 (single isomer, unassigned; 75b)
QUANTITY_KIND: Activity
REPORTED_MEASUREMENT: 6.2%

COMPOUND: COc1ccccc1CC(=O)CC(Cc1ccc2ccccc2c1)OC (single isomer, unassigned; 66b)
QUANTITY_KIND: Activity
REPORTED_MEASUREMENT: 4.3%

COMPOUND: CS(C)=C(C(=O)Cc1ccccc1)C(=O)Cc1ccccc1
QUANTITY_KIND: Activity
REPORTED_MEASUREMENT: 0.5%

COMPOUND: O=C(CCCc1ccccc1)CC(O)CCc1ccccc1 (stereo not given)
QUANTITY_KIND: Activity
REPORTED_MEASUREMENT: 2.2%

COMPOUND: O=C(CCc1ccccc1)CC(O)c1ccccc1 (single isomer, unassigned; 23a)
QUANTITY_KIND: Activity
REPORTED_MEASUREMENT: 78.8%

COMPOUND: Oc1ccccc1CCC1=NOC(Cc2ccccc2)C1 (stereo not given)
QUANTITY_KIND: Activity
REPORTED_MEASUREMENT: 111%

* * *

Measured Activity, listed per entry for reference.
Target: Estrogen receptor beta (Homo sapiens)
Assay: Activation of human estrogen receptor beta expressed in HEK293 cells at 10 uM beta-galactosidase reporter gene assay relative to 3,17-beta-estradiol
Type: cell-based
QUANTITY_KIND: Activity (%)

MOLECULE: Oc1ccc(CCC2=NOC(Cc3ccccc3)C2)cc1 (single isomer, unassigned)
REPORTED_MEASUREMENT: 41.5

MOLECULE: O=C(CCc1ccccc1)CC(O)Cc1ccc2ccccc2c1 (single isomer, unassigned; 57a)
REPORTED_MEASUREMENT: 6.4

MOLECULE: COC(CC(=O)CCc1ccccc1)Cc1ccc2ccccc2c1 (stereo not drawn)
REPORTED_MEASUREMENT: 12.4

* * *

Biological target: Estrogen receptor beta (Homo sapiens)
Assay: Activation of human estrogen receptor beta expressed in HEK293 cells at 10 uM beta-galactosidase reporter gene assay relative to 3,17-beta-estradiol
Assay type: cell-based

COMPOUND: c1ccc(CCC2=NOC(Cc3cccc4ccccc34)C2)cc1 (single isomer, unassigned; 52a)
U: %
Activity: 10.5
//
COMPOUND: O=C(CC(O)CCc1ccccc1)c1ccccc1 (configuration not stated)
U: %
Activity: 15.4
//
COMPOUND: COC(CC(=O)Cc1ccc(F)cc1)Cc1cccc2ccccc12 (single isomer, unassigned; 62b)
U: %
Activity: -0.5
//
COMPOUND: c1ccc(CCC2=NOC(c3ccccc3)C2)cc1 (single isomer, unassigned; 12a)
U: %
Activity: 9.8
//
COMPOUND: COC(CC(=O)Cc1cccc2ccccc12)Cc1cccc2ccccc12 (single isomer, unassigned; 64a)
U: %
Activity: -0.5
//
COMPOUND: c1ccc(CCCC2=NOC(Cc3ccccc3)C2)cc1 (configuration not stated)
U: %
Activity: 13.6
//
COMPOUND: c1ccc(CCC2=NOC(c3ccccc3)C2)cc1 (single isomer, unassigned; 12b)
U: %
Activity: 8.1
//
COMPOUND: O=C(CCc1ccccc1)CC(O)Cc1cccc2ccccc12 (configuration not stated)
U: %
Activity: 1.7
//
COMPOUND: c1ccc(CC2=NOC(Cc3ccccc3)C2)cc1 (single isomer, unassigned; 14a)
U: %
Activity: -0.2
//
COMPOUND: Oc1ccc(CC2CC(CCc3ccccc3O)=NO2)cc1 (single isomer, unassigned; 75a)
U: %
Activity: 2.5
//
COMPOUND: COC(CCc1ccccc1)CC(=O)CCCc1ccccc1 (configuration not stated)
U: %
Activity: -14.6
//
COMPOUND: COc1ccc(CC2CC(CCc3ccccc3)=NO2)cc1 (single isomer, unassigned; 50b)
U: %
Activity: 13.2
//
COMPOUND: O=C(CCc1ccccc1)CC(O)Cc1ccc(F)cc1 (configuration not stated)
U: %
Activity: 5.7
//
COMPOUND: Oc1ccccc1CCC1=NOC(Cc2ccccc2)C1 (single isomer, unassigned)
U: %
Activity: 30.5
//
COMPOUND: c1ccc(CCC2=NOC(Cc3ccccc3)C2)cc1 (single isomer, unassigned)
U: %
Activity: 1.1
//
COMPOUND: Oc1ccc(CCC2=NOC(Cc3ccc(F)cc3)C2)cc1 (single isomer, unassigned)
U: %
Activity: 28.4
//
COMPOUND: COC(CCc1ccccc1)CC(=O)c1ccccc1 (configuration not stated)
U: %
Activity: 25.8
//
COMPOUND: c1ccc(CCCC2=NOC(CCc3ccccc3)C2)cc1 (configuration not stated)
U: %
Activity: 15.5
//
COMPOUND: Fc1ccc(CC2CC(CCc3ccccc3)=NO2)cc1 (configuration not stated)
U: %
Activity: 11.2
//
COMPOUND: Oc1ccccc1CCC1=NOC(Cc2ccccc2)C1 (configuration not stated)
U: %
Activity: 18.4
//
COMPOUND: O=C(Cc1ccccc1)CC(O)Cc1ccccc1 (configuration not stated)
U: %
Activity: 1.7
//
COMPOUND: c1ccc(CCC2CC(c3ccccc3)=NO2)cc1 (single isomer, unassigned; 10a)
U: %
Activity: 8.5
//
COMPOUND: O=C(Cc1ccccc1)CC(O)c1ccccc1 (configuration not stated)
U: %
Activity: 1.6
//
COMPOUND: COC(CC(=O)CCCc1ccccc1)Cc1ccccc1 (configuration not stated)
U: %
Activity: 30.4
//
COMPOUND: O=C(CCCc1ccccc1)CC(O)c1ccccc1 (single isomer, unassigned; 24b)
U: %
Activity: 28.2
//
COMPOUND: O=C(CCCc1ccccc1)CC(O)CCc1ccccc1 (configuration not stated)
U: %
Activity: -7.1
//
COMPOUND: O=C(CCc1ccccc1)CC(O)Cc1ccc2ccccc2c1 (single isomer, unassigned; 57b)
U: %
Activity: 20.1
//
COMPOUND: c1ccc(CCC2=NOC(Cc3ccc4ccccc4c3)C2)cc1 (single isomer, unassigned; 53a)
U: %
Activity: 8.2
//
COMPOUND: COC(CC(=O)c1ccccc1)Cc1ccccc1 (configuration not stated)
U: %
Activity: 18.4
//
COMPOUND: CS(C)=C(C(=O)Cc1ccccc1)C(=O)c1ccccc1
U: %
Activity: 5.8
//
COMPOUND: COc1ccc(CC(O)CC(=O)CCc2ccccc2)cc1 (single isomer, unassigned; 54b)
U: %
Activity: 1.2
//
COMPOUND: O=C(CCCc1ccccc1)CC(=O)CCc1ccccc1
U: %
Activity: -1.5
